Where do the numbers come from? From ChEMBL document CHEMBL1125413.

Record form. Attribute: IC50. Fill in for each entry.

Enquiry: For the record COC(=O)C1C2CC[C@H](C[C@@H]1c1ccc(F)cc1)N2 (stereo partly specified) , what value of IC50 is listed for Sodium-dependent dopamine transporter (Rattus norvegicus, UniProt P23977)?
Return: 36 nM

Enquiry: For the record COC(=O)C1C2CC[C@H](C[C@@H]1c1ccccc1)N2 (stereo partly specified) , what value of IC50 is listed for Sodium-dependent dopamine transporter (Rattus norvegicus, UniProt P23977)?
Return: 86 nM

Enquiry: For the record c1ccc2sc(C3(N4CCCCC4)CCCCC3)cc2c1 , what value of IC50 is listed for Sodium-dependent dopamine transporter (Rattus norvegicus, UniProt P23977)?
Return: 42 nM

Enquiry: For the record COC(=O)[C@@H]1C2CC[C@H](C[C@@H]1c1ccccc1)N2C (stereo in doubt; 49) , what value of IC50 is listed for Sodium-dependent dopamine transporter (Rattus norvegicus, UniProt P23977)?
Return: 22 nM

Enquiry: For the record COC(=O)C1C2CC[C@H](C[C@@H]1OC(=O)c1ccccc1)N2 (stereo in doubt; 22) , what value of IC50 is listed for Sodium-dependent dopamine transporter (Rattus norvegicus, UniProt P23977)?
Return: 414 nM

Enquiry: For the record COC(=O)[C@@H]1C2CC[C@H](C[C@@H]1c1ccccc1)N2C (stereo in doubt; 47) , what value of IC50 is listed for Sodium-dependent dopamine transporter (Rattus norvegicus, UniProt P23977)?
Return: 44 nM

Enquiry: For the record COC(=O)C1C2CC[C@H](C[C@@H]1OC(=O)Nc1cccc([N+](=O)[O-])c1)N2C (stereo partly specified) , what value of IC50 is listed for Sodium-dependent dopamine transporter (Rattus norvegicus, UniProt P23977)?
Return: 37 nM

Enquiry: For the record C=CCN1C2CC[C@@H]1C[C@H](OC(=O)c1ccccc1)C2C(=O)OC (stereo partly specified) , what value of IC50 is listed for Sodium-dependent dopamine transporter (Rattus norvegicus, UniProt P23977)?
Return: 1020 nM

Enquiry: For the record COC(=O)C1C2CC[C@H](C[C@@H]1OC(=O)c1ccccc1)N2 (stereo in doubt; 23) , what value of IC50 is listed for Sodium-dependent dopamine transporter (Rattus norvegicus, UniProt P23977)?
Return: 270 nM

Enquiry: For the record CN1[C@@H]2CC[C@H]1C[C@H](OC(=O)c1ccccc1)C2 , what value of IC50 is listed for Sodium-dependent dopamine transporter (Rattus norvegicus, UniProt P23977)?
Return: 23000 nM

Enquiry: For the record COC(=O)[C@@H]1C2CC[C@H](C[C@@H]1c1ccccc1)N2C (stereo in doubt; 50) , what value of IC50 is listed for Sodium-dependent dopamine transporter (Rattus norvegicus, UniProt P23977)?
Return: 32000 nM
